study_system: UniProt:P30989
experiment_description: NT-induced IP formation in PC3 cells
Format: cell-based
Set-up: Ab-NTR1 detected two major bands in extracts of PC3 cells, the parent protein of 50 kDa; endogenous in cells; host or cells: PC3 cells (ATCC)
condition_details: [agent] that decreased IP formation by 40%; read-out: IP Formation IC50
parameter_measured: IC50

item_smiles	result_value
Cc1cc2c(C(C)C)c(O)c(O)c(C=O)c2c(O)c1-c1c(C)cc2c(C(C)C)c(O)c(O)c(C=O)c2c1O	20 µM

---

study_system: NTR1 (Homo sapiens, UniProt P30989)
Sequence (P30989 whole entry): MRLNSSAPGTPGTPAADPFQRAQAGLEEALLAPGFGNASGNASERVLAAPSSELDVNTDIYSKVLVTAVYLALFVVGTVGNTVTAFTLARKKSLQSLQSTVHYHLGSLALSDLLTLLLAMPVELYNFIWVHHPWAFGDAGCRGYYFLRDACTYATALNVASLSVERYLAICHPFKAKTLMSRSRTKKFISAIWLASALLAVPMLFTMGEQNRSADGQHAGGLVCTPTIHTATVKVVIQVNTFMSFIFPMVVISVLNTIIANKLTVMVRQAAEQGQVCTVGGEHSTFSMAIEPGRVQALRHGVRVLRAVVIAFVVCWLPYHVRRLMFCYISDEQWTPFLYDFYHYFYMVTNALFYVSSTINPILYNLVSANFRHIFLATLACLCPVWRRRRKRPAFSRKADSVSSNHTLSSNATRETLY
experiment_description: ^125I-NT binding to PC3 cells
condition_details: read-out: NT Binding EC50; [agent] giving 75% increase in NT binding
Here the recorded EC50 is given for each entry.

compound	EC50, µM
COC(=O)C1=C(C)NC(C)=C([N+](=O)[O-])C1c1ccccc1C(F)(F)F (stereo not drawn)	16
COC(=O)c1c(C)[nH]c(C)c1C(=O)c1ccccc1Cc1ccccc1	29
COc1ccc(O)c(C(C)(C)C)c1 [BHA, butylated hydroxy anisole]	110

---

study_system: NTR1 (Homo sapiens)
experiment_description: NT-induced IP formation in PC3 cells
Format: cell-based
Parameters: Ab-NTR1 detected two major bands in extracts of PC3 cells, the parent protein of 50 kDa; endogenous in cells; host or cells: PC3 cells (ATCC)

item_smiles	unit_abbrev	IC50
O=C(/C=C/c1ccc(O)c(O)c1)OCCc1ccccc1	µM	18

---

// reported Specific NT-Binding (% control) for each item listed
study_system: NTR1 (Homo sapiens, UniProt P30989)
experiment_description: ^125I-NT binding to isolated PC3 cell membranes
Parameters: Ab-NTR1 detected two major bands in extracts of PC3 cells, the parent protein of 50 kDa; endogenous in cells; host or cells: PC3 cells (ATCC)
condition_details: 25 μM LOX pathway blocker
parameter_measured: Specific NT-Binding (% control)

compound	study_system	unit_abbrev	result_value
CC(Cc1ccc(O)c(O)c1)C(C)Cc1ccc(O)c(O)c1 (centres unmarked) [NDGA, Nordihydroguaiaretic acid]	NTR1 (Homo sapiens, UniProt P30989)	% control	121
CC(C)c1ccc2c(c1)c(SC(C)(C)C)c(CC(C)(C)C(=O)O)n2Cc1ccc(Cl)cc1	NTR1 (Homo sapiens, UniProt P30989)	% control	107
CC1=C(C)C(=O)C(CCCCC#CCCCC#CCO)=C(C)C1=O	NTR1 (Homo sapiens, UniProt P30989)	% control	109
CCCCCC(O)c1cccc(OCc2ccc3ccccc3n2)c1 (centres unmarked)	NTR1 (Homo sapiens, UniProt P30989)	% control	113
CC1=C(/C=C/C(C)=C/C=C/C(C)=C/C(=O)O)C(C)(C)CCC1	NTR1 (Homo sapiens, UniProt P30989)	% control	115

---

study_system: bombesin receptor (Homo sapiens)
Construct: endogenous in cells; host or cells: PC3 cells (ATCC)
Sequence (P30550 whole entry): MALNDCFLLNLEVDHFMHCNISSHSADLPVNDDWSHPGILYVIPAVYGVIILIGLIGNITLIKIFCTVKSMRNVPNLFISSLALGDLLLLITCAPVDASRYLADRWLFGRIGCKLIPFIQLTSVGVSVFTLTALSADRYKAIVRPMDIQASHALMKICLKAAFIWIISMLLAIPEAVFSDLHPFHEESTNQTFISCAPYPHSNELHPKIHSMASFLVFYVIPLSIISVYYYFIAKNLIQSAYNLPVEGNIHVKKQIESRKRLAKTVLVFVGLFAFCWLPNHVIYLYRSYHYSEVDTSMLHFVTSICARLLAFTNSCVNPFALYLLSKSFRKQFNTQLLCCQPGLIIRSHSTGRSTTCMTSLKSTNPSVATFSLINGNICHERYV
experiment_description: ^125I-[Nle^14]-bombesin binding to PC3 cells
condition_details: 12 μM LOX blocker, 37° C.
The following compounds are shown together with reported Specific Binding (% control) of ^125I-[Nle14]-bombesin values.
parameter_measured: Specific Binding (% control) of ^125I-[Nle14]-bombesin

compound	result_value
CC(C)c1ccc2c(c1)c(SC(C)(C)C)c(CC(C)(C)C(=O)O)n2Cc1ccc(Cl)cc1	106
CC(Cc1ccc(O)c(O)c1)C(C)Cc1ccc(O)c(O)c1 (stereo not shown) [NDGA, Nordihydroguaiaretic acid]	110
CCCCCC(O)c1cccc(OCc2ccc3ccccc3n2)c1 (stereo not shown)	107
CC1=C(C)C(=O)C(CCCCC#CCCCC#CCO)=C(C)C1=O	112
